Assay: TMS crossover study, pharmacokinetic analysis
Type: in vivo, human
Conditions: male, human, plasma, oral, 20 mg, Period 1 (N=10), Range
Measurement Type: Tmax

>>> df
                              record_smiles  measurement_type      observed
0  Cc1cc(N2CCc3cc(F)ccc3C2)cc(C)c1NC(=O)CC(C)(C)C              Tmax  1.92 to 12 h

====

Experiment: TMS crossover study, pharmacokinetic analysis
Assay type: in vivo, human
Conditions: male, human, plasma, oral, 20 mg, Full PK Profile Data Set (N=16), Range
Measurement Type: MRT last (h)

In [3]: df
Out[3]:
                              record_smiles  observed
0  Cc1cc(N2CCc3cc(F)ccc3C2)cc(C)c1NC(=O)CC(C)(C)C      48.2

====

Experiment: Food effect study, oral capsule, plasma PK in non-human primate
Assay type: in vivo, Cynomolgus monkeys
Settings: cynomolgus monkey, plasma, oral, 3 mg/kg, fed, 3 mg/kg capsule, plasma, 12 h, individual animals; read-out: Concentration
Measurement Type: concentration at 12 h (ng/mL)

                                   compound  observed
0  Cc1cc(N2CCc3cc(F)ccc3C2)cc(C)c1NC(=O)CC(C)(C)C [Compound A]      48.8

====

Experiment: TMS crossover study, pharmacokinetic analysis
Format: in vivo, human
Details: male, human, plasma, oral, 20 mg, Period 2 (N=10), 24 h sampling, Mean ± SD
Measurement Type: half-life (h)

>>> print(df.to_string())
                              record_smiles  observed
0  Cc1cc(N2CCc3cc(F)ccc3C2)cc(C)c1NC(=O)CC(C)(C)C      10.6

====

Assay: First-in-human SAD and MAD study, pharmacokinetics
Assay type: in vivo
Conditions: human, plasma, oral, 30 mg, SAD, 30 mg fasted, N=6, Mean ± SD; read-out: AUC0-24
Measurement Type: AUC(0-t) (ng·h/mL)

In [3]: df
Out[3]:
                              record_smiles  measurement_type  observed
0  Cc1cc(N2CCc3cc(F)ccc3C2)cc(C)c1NC(=O)CC(C)(C)C          AUC(0-t)       369

====

Assay: TMS crossover study, pharmacokinetic analysis
Type: in vivo, human
Settings: male, human, plasma, oral, 20 mg, Full PK Profile (N=16), Mean ± SD; read-out: AUC0-24
Measurement Type: AUC(0-t) (ng·h/mL)

>>> print(df.to_string())
                              record_smiles  readout_unit  observed
0  Cc1cc(N2CCc3cc(F)ccc3C2)cc(C)c1NC(=O)CC(C)(C)C       ng·h/mL       692

====

Assay: TMS crossover study, pharmacokinetic analysis
Format: in vivo, human
Conditions: male, human, plasma, oral, 20 mg, subjects who received placebo in Period 2, mean; read-out: Cmax of Compound A in placebo treatment period
Measurement Type: Cmax (ng/mL)

In [3]: df
Out[3]:
                              record_smiles  observed
0  Cc1cc(N2CCc3cc(F)ccc3C2)cc(C)c1NC(=O)CC(C)(C)C      5.84
